Tested on: barley (Hordeum vulgare, var. Georgie)
Assay Notes: Antilodging effects on barley
Format: in vivo
Set-up: key: 5 = no increase over controls, 3 = moderate significant increase
Condition Set: rate 0.25 kg/ha, control 5
Where a name gives a salt, the structure may show the parent alone.

Compound: O=[N+]([O-])N(F)c1c(Br)cccc1Br
Stem stiffness: 4
--
Compound: CCc1cccc(C(C)C)c1N[N+](=O)[O-] [2-Ethyl-6-isopropyl-N--nitroaniline]
Stem stiffness: 4
--
Compound: Brn1c(-c2ccccc2)cc(-c2ccccc2)[n+]1Br.O=[N+]([O-])[N-]c1c(Br)cccc1Br
Stem stiffness: 4
--
Compound: O=[N+]([O-])Nc1cccc(Cl)c1Cl
Stem stiffness: 5 (No increase over controls)
--
Compound: N#Cc1ccc(N[N+](=O)[O-])c(Br)c1
Stem stiffness: 5 (No increase over controls)
--
Compound: Cn1c(-c2ccccc2)cc(-c2ccccc2)[n+]1C.O=[N+]([O-])[N-]c1ccccc1Br
Stem stiffness: 4
--
Compound: O=[N+]([O-])Nc1c(Br)cccc1Br [Sodium salt of 2,6-dibromo-N--nitroaniline]
Stem stiffness: 4
--
Compound: CCc1cccc(C(C)C)c1N[N+](=O)[O-] [Tallowamine compound with 2-ethyl-6-isopropyl-N--nitroanilin]
Stem stiffness: 4
--
Compound: O=[N+]([O-])Nc1c(Br)cccc1Br [2,6-Dibromo-N--nitroaniline]
Stem stiffness: 4
--
Compound: O=[N+]([O-])Nc1c(Br)cccc1Br [Tallowamine compound with 2,6-dibromo-N--nitroaniline]
Stem stiffness: 4
--
Compound: Cc1cc(C)c(N[N+](=O)[O-])c(I)c1
Stem stiffness: 5 (No increase over controls)
--
Compound: Cn1c(-c2ccccc2)cc(-c2ccccc2)[n+]1C.O=[N+]([O-])[N-]c1cccc(Cl)c1Cl
Stem stiffness: 5 (No increase over controls)

====

System: barley (Hordeum vulgare, var. Georgie)
Assay Notes: Antilodging effects on barley
Type: in vivo
Condition Set: rate 0.5 kg/ha, control 5.2
# reported Weight Dry; entries follow

Compound: O=[N+]([O-])Nc1cccc(Cl)c1Cl
Weight Dry / g: 7.1

Compound: CCc1cccc(C(C)C)c1N[N+](=O)[O-]
Weight Dry / g: 5.9

Compound: Brn1c(-c2ccccc2)cc(-c2ccccc2)[n+]1Br.O=[N+]([O-])[N-]c1c(Br)cccc1Br
Weight Dry / g: 6.7

Compound: N#Cc1ccc(N[N+](=O)[O-])c(Br)c1
Weight Dry / g: 7.0

Compound: O=[N+]([O-])Nc1c(Br)cccc1Br [Tallowamine compound with 2,6-dibromo-N--nitroaniline]
Weight Dry / g: 7.5

====

System: barley (Hordeum vulgare, var. Georgie)
Assay Notes: Antilodging effects on barley
Format: in vivo
Condition Set: rate 0.25 kg/ha, control 53.1
Counter-ions that a name gives are not always drawn.
Height values for the molecules below.

Molecule: CCc1cccc(C(C)C)c1N[N+](=O)[O-] [Tallowamine compound with 2-ethyl-6-isopropyl-N--nitroanilin]
Assayed System: barley (Hordeum vulgare, var. Georgie)
Height, cm: 45.0

Molecule: N#Cc1ccc(N[N+](=O)[O-])c(Br)c1 [2-Bromo-4-cyano-N--nitroaniline]
Assayed System: barley (Hordeum vulgare, var. Georgie)
Height, cm: 53.0

Molecule: O=[N+]([O-])Nc1ccc(Br)cc1Br [2,4-Dibromo-N--nitroaniline]
Assayed System: barley (Hordeum vulgare, var. Georgie)
Height, cm: 54.7

Molecule: O=[N+]([O-])Nc1c(Br)cccc1Br [Sodium salt of 2,6-dibromo-N--nitroaniline]
Assayed System: barley (Hordeum vulgare, var. Georgie)
Height, cm: 50.2

Molecule: O=[N+]([O-])Nc1cccc(Cl)c1Cl
Assayed System: barley (Hordeum vulgare, var. Georgie)
Height, cm: 53.3

Molecule: Cn1c(-c2ccccc2)cc(-c2ccccc2)[n+]1C.O=[N+]([O-])[N-]c1ccccc1Br
Assayed System: barley (Hordeum vulgare, var. Georgie)
Height, cm: 52.5

Molecule: CCc1cccc(C(C)C)c1N[N+](=O)[O-] [2-Ethyl-6-isopropyl-N--nitroaniline]
Assayed System: barley (Hordeum vulgare, var. Georgie)
Height, cm: 47.7

Molecule: Cc1cc(C)c(N[N+](=O)[O-])c(I)c1 [2-Iodo-4,6-dimethyl-N--nitroaniline]
Assayed System: barley (Hordeum vulgare, var. Georgie)
Height, cm: 52.7

Molecule: O=[N+]([O-])Nc1c(Br)cccc1Br [Tallowamine compound with 2,6-dibromo-N--nitroaniline]
Assayed System: barley (Hordeum vulgare, var. Georgie)
Height, cm: 54.7

====

Each entry below carries its recorded Height.
Tested on: barley (Hordeum vulgare, var. Georgie)
Assay Notes: Antilodging effects on barley
Assay type: in vivo
Condition Set: rate 0.25 kg/ha, control 53.1

Compound: Brn1c(-c2ccccc2)cc(-c2ccccc2)[n+]1Br.O=[N+]([O-])[N-]c1c(Br)cccc1Br
Unit Name: cm
Height: 58.2
//
Compound: O=[N+]([O-])Nc1c(Br)cccc1Br [2,6-Dibromo-N--nitroaniline]
Unit Name: cm
Height: 50.5
//
Compound: Cn1c(-c2ccccc2)cc(-c2ccccc2)[n+]1C.O=[N+]([O-])[N-]c1cccc(Cl)c1Cl
Unit Name: cm
Height: 56.3
//
Compound: O=[N+]([O-])N(F)c1c(Br)cccc1Br
Unit Name: cm
Height: 52.0

====

Test system: soybeans (Glycine max) Adelphia variety
Assay Notes: Increasing axillary branching and improving the canopy of broad leaf plants (soybeans)
Format: in vivo, soybean (Glycine max)
Condition Set: rate 0.5 kg/ha, three weeks after treatment
Structures can show the parent of a compound that is named as a salt.
Quantity Name: % Increase in Plant Canopy over untreated controls

Compound: Cn1c(-c2ccccc2)cc(C2CCCCC2)[n+]1C.O=[N+]([O-])[N-]c1c(Br)cc(Br)cc1Br
Assayed System: soybeans (Glycine max) Adelphia variety
Measured Result: slight reduction

Compound: O=[N+]([O-])Nc1c(Br)cc(Br)cc1Br [2,4,6-Tribromo-N--nitroaniline, triethylamine (1:1)salt]
Assayed System: soybeans (Glycine max) Adelphia variety
Measured Result: slight reduction

Compound: O=[N+]([O-])Nc1c(Br)cc(Br)cc1Br [2,4,6-Tribromo-N--nitroaniline, diisopropylamine (1:1)salt]
Assayed System: soybeans (Glycine max) Adelphia variety
Measured Result: slight reduction

====

System: barley (Hordeum vulgare, var. Georgie)
Assay Notes: Antilodging effects on barley
Format: in vivo
Condition Set: rate 0.5 kg/ha, three weeks after spraying
Where a name gives a salt, the structure may show the parent alone.

Compound: Brn1c(-c2ccccc2)cc(-c2ccccc2)[n+]1Br.O=[N+]([O-])[N-]c1c(Br)cccc1Br
Phytotoxicity: 5 (No increase over controls)
--
Compound: Cn1c(-c2ccccc2)cc(-c2ccccc2)[n+]1C.O=[N+]([O-])[N-]c1ccccc1Br
Phytotoxicity: 5 (No increase over controls)
--
Compound: O=[N+]([O-])Nc1c(Br)cccc1Br [Sodium salt of 2,6-dibromo-N--nitroaniline]
Phytotoxicity: 5 (No increase over controls)
--
Compound: N#Cc1ccc(N[N+](=O)[O-])c(Br)c1 [2-Bromo-4-cyano-N--nitroaniline]
Phytotoxicity: 5 (No increase over controls)
--
Compound: O=[N+]([O-])Nc1cccc(Cl)c1Cl
Phytotoxicity: 5 (No increase over controls)

====

Test system: barley (Hordeum vulgare, var. Georgie)
Assay Notes: Antilodging effects on barley
Format: in vivo
Condition Set: rate 0.5 kg/ha, control 5.2
Where a name gives a salt, the structure may show the parent alone.
# Weight Dry values compiled below
Quantity Name: Weight Dry (g)

Compound: O=[N+]([O-])Nc1c(Br)cccc1Br [Sodium salt of 2,6-dibromo-N--nitroaniline]
Assayed System: barley (Hordeum vulgare, var. Georgie)
Measured Result: 6.4
//
Compound: O=[N+]([O-])Nc1ccc(Br)cc1Br
Assayed System: barley (Hordeum vulgare, var. Georgie)
Measured Result: 6.7
//
Compound: O=[N+]([O-])Nc1c(Br)cccc1Br [2,6-Dibromo-N--nitroaniline]
Assayed System: barley (Hordeum vulgare, var. Georgie)
Measured Result: 6.9

====

Tested on: barley (Hordeum vulgare, var. Georgie)
Assay Notes: Antilodging effects on barley
Type: in vivo
Condition Set: rate 0.25 kg/ha, control 5.2
Procedure: In this experiment the procedure of Example 7 is repeated excepting that the crop used was barley (Hordeum vulgare, var. Georgie; European lodging prone variety). The plants are treated at the 3-4 leaf stage. Plants are watered prior to treatment and then sprayed to provide the kg/ha rate of test compound desired. […] Three weeks after spraying the plants are measured and harvested. […]
Below, each entry is listed alongside its reported Weight Dry.

Compound: N#Cc1ccc(N[N+](=O)[O-])c(Br)c1 [2-Bromo-4-cyano-N--nitroaniline]
Unit Name: g
Weight Dry: 7.4
//
Compound: Brn1c(-c2ccccc2)cc(-c2ccccc2)[n+]1Br.O=[N+]([O-])[N-]c1c(Br)cccc1Br
Unit Name: g
Weight Dry: 6.9
//
Compound: O=[N+]([O-])N(F)c1c(Br)cccc1Br [2,6-Dibromo-N--fluoro-N--nitroaniline]
Unit Name: g
Weight Dry: 6.0
//
Compound: O=[N+]([O-])Nc1c(Br)cccc1Br [2,6-Dibromo-N--nitroaniline]
Unit Name: g
Weight Dry: 6.2
//
Compound: O=[N+]([O-])Nc1ccc(Br)cc1Br [2,4-Dibromo-N--nitroaniline]
Unit Name: g
Weight Dry: 7.8
//
Compound: O=[N+]([O-])Nc1c(Br)cccc1Br [Tallowamine compound with 2,6-dibromo-N--nitroaniline]
Unit Name: g
Weight Dry: 6.8
//
Compound: O=[N+]([O-])Nc1cccc(Cl)c1Cl
Unit Name: g
Weight Dry: 8.2
